Items are presented alongside their recorded pIC50.
study system: TNF-α (Homo sapiens)
Construct: purchased R&D 210-TA-020/CF
method: TNF-α Induced HEK Blue Cellular Assay (secreted alkaline phosphatase expression, QUANTI-Blue)
Type: cell-based
reported conditions: HEK Blue TNFα reporter cells; TNF-α 100 μg/ml; 24 hrs at 37° C.; inhibition of secreted alkaline phosphatase; read-out: IC50 value
pIC50: −log10 of the molar value.
reported endpoint: pIC50

compound=[2H]C([2H])([2H])N1C(=O)c2cccc(OC(F)F)c2[C@H]2C[C@@H]1c1nc3ccc(C#CC4(C)CCN(C(C)=O)CC4)cc3n12 result="4.52 to 5.00"
compound=[2H]C([2H])([2H])N1C(=O)c2cccc(OC(F)F)c2[C@H]2C[C@@H]1c1nc3ccc(C#CC4CN(C(=O)C(C)(C)C)C4)cc3n12 result="> 7.00"
compound=[2H]C([2H])([2H])N1C(=O)c2cccc(OC(F)F)c2[C@H]2C[C@@H]1c1nc3c(F)cc(C#CC)cc3n12 result="6.00 to 7.00"
compound="[2H]C([2H])([2H])N1C(=O)c2cccc(OC(F)F)c2[C@H]2C[C@@H]1c1nc3ccc(C#CCC(O)C(C)O)cc3n12 (single isomer, unassigned) [Example 243]" result="> 7.00"
compound="[2H]C([2H])([2H])N1C(=O)c2cccc(OC(F)F)c2[C@H]2C[C@@H]1c1nc3ccc(C#CC4CC(O)C4)cc3n12 (stereo partly drawn)" result="> 7.00"
compound=[2H]C([2H])([2H])N1C(=O)c2cccc(OC(F)F)c2[C@H]2C[C@@H]1c1nc3ccc(C#CC4(C)COC4)cc3n12 result="> 7.00"

====

study system: TNF-α (Homo sapiens)
Construct: purchased R&D 210-TA-020/CF
method: TNF-α Induced HEK Blue Cellular Assay (secreted alkaline phosphatase expression, QUANTI-Blue)
Format: cell-based
reported conditions: HEK Blue TNFα reporter cells; TNF-α 100 μg/ml; 24 hrs at 37° C.; inhibition of secreted alkaline phosphatase; read-out: IC50 value
Listed compounds paired with reported IC50
reported endpoint: IC50

molecule_smiles=[2H]C([2H])([2H])N1C(=O)c2cccc(OC(F)F)c2[C@H]2C[C@@H]1c1nc3ccc(C#CCCCC#N)cc3n12 study_system="TNF-α (Homo sapiens)" reported_endpoint=IC50 result="< 100 nM"
molecule_smiles=[2H]C([2H])([2H])N1C(=O)c2cccc(OC(F)F)c2[C@H]2C[C@@H]1c1nc3ccc(C#CC4CN(C(C)C)C4)cc3n12 study_system="TNF-α (Homo sapiens)" reported_endpoint=IC50 result="< 100 nM"
molecule_smiles=[2H]C([2H])([2H])N1C(=O)c2cccc(OC(F)F)c2[C@H]2C[C@@H]1c1nc3ccc(C#CC(C)C)cc3n12 study_system="TNF-α (Homo sapiens)" reported_endpoint=IC50 result="100 to 1000 nM"
molecule_smiles=[2H]C([2H])([2H])N1C(=O)c2cccc(OC(F)F)c2[C@H]2C[C@@H]1c1nc3ccc(C#CCN4CCOCC4)cc3n12 study_system="TNF-α (Homo sapiens)" reported_endpoint=IC50 result="100 to 1000 nM"
molecule_smiles=[2H]C([2H])([2H])N1C(=O)c2cccc(OC(F)F)c2[C@H]2C[C@@H]1c1nc3ccc(C#CCCC#N)cc3n12 study_system="TNF-α (Homo sapiens)" reported_endpoint=IC50 result="< 100 nM"
molecule_smiles=[2H]C([2H])([2H])N1C(=O)c2cccc(OC(F)F)c2[C@H]2C[C@@H]1c1nc3ccc(C#CC4CCN(C(=O)C(C)(C)O)CC4)cc3n12 study_system="TNF-α (Homo sapiens)" reported_endpoint=IC50 result="< 100 nM"

====

study system: TNF-α (Homo sapiens)
Construct: purchased R&D 210-TA-020/CF
method: TNF-α Induced HEK Blue Cellular Assay (secreted alkaline phosphatase expression, QUANTI-Blue)
Format: cell-based
reported conditions: HEK Blue TNFα reporter cells; TNF-α 100 μg/ml; 24 hrs at 37° C.; inhibition of secreted alkaline phosphatase; read-out: IC50 value
pIC50: −log10 of the molar value.
# pIC50 per record follows
reported endpoint: pIC50

compound="[2H]C([2H])([2H])N1C(=O)c2cccc(OC(F)F)c2[C@H]2C[C@@H]1c1nc3ccc(C#CCCC(C)O)cc3n12 (stereo partly drawn)" result="> 7.00"
compound=[2H]C([2H])([2H])N1C(=O)c2cccc(OC(F)F)c2[C@H]2C[C@@H]1c1nc3ccc(C#CC4(C)COC4)c(F)c3n12 result="6.00 to 7.00"
compound=[2H]C([2H])([2H])N1C(=O)c2cccc(OC(F)F)c2[C@H]2C[C@@H]1c1nc3ccc(C#CCN4CC(F)C4)cc3n12 result="6.00 to 7.00"
compound=[2H]C([2H])([2H])N1C(=O)c2cccc(OC(F)F)c2[C@H]2C[C@@H]1c1nc3ccc(C#CCNC(C)C)cc3n12 result="6.00 to 7.00"
compound="[2H]C([2H])([2H])N1C(=O)c2cccc(OC(F)F)c2[C@H]2C[C@@H]1c1nc3ccc(C#CCC(O)C(C)O)cc3n12 (single isomer, unassigned) [Example 246]" result="> 7.00"
compound="[2H]C([2H])([2H])N1C(=O)c2cccc(OC(F)F)c2[C@H]2C[C@@H]1c1nc3ccc(C#CC4CCN(C(=O)C5(O)CC5)C4)cc3n12 (stereo partly drawn)" result="> 7.00"

====

study system: TNF-α (Homo sapiens, UniProt P01375)
Construct: purchased R&D 210-TA-020/CF
Sequence (P01375 77-233 limits assumed): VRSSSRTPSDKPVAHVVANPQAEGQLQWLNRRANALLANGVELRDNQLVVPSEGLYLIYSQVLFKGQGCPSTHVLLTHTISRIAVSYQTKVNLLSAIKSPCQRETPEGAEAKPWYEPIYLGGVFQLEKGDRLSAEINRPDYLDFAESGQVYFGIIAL
method: TNF-α Induced HEK Blue Cellular Assay (secreted alkaline phosphatase expression, QUANTI-Blue)
Format: cell-based
reported conditions: IC50 value, HEK Blue TNFα reporter cells; TNF-α 100 μg/ml; 24 hrs at 37° C.; inhibition of secreted alkaline phosphatase
pIC50: −log10 of the molar value.
reported endpoint: pIC50

compound="[2H]C([2H])([2H])N1C(=O)c2cccc(OC(F)F)c2[C@H]2C[C@@H]1c1nc3ccc(C#CC(=O)NCC(F)(F)F)cc3n12 [Example 89]" result="6.00 to 7.00"
compound="[2H]C([2H])([2H])N1C(=O)c2cccc(OC(F)F)c2[C@H]2C[C@@H]1c1nc3ccc(C#CCCN4CCC4)cc3n12 [Example 135]" result="> 7.00"
compound="[2H]C([2H])([2H])N1C(=O)c2cccc(OC(F)F)c2[C@H]2C[C@@H]1c1nc3ccc(C#CCCC)cc3n12 [Example 88]" result="> 7.00"
compound="[2H]C([2H])([2H])N1C(=O)c2cccc(OC(F)F)c2[C@H]2C[C@@H]1c1nc3ccc(C#CCNC4CC4)cc3n12 [Example 241]" result="> 7.00"
compound="[2H]C([2H])([2H])N1C(=O)c2cccc(OC(F)F)c2[C@H]2C[C@@H]1c1nc3ccc(C#CC(=O)OC(C)C)cc3n12 [Example 38]" result="> 7.00"

====

study system: TNF-α (Homo sapiens, UniProt P01375)
Construct: purchased R&D 210-TA-020/CF
method: TNF-α Induced HEK Blue Cellular Assay (secreted alkaline phosphatase expression, QUANTI-Blue)
Type: cell-based
reported conditions: HEK Blue TNFα reporter cells; TNF-α 100 μg/ml; 24 hrs at 37° C.; inhibition of secreted alkaline phosphatase; read-out: IC50 value
pIC50: −log10 of the molar value.
reported endpoint: pIC50

compound="[2H]C([2H])([2H])N1C(=O)c2cccc(OC(F)F)c2[C@H]2C[C@@H]1c1nc3c(F)cc(C#CC4(C)COC4)cc3n12 [Example 145]" reported_endpoint=pIC50 result="> 7.00"
compound="[2H]C([2H])([2H])N1C(=O)c2cccc(OC(F)F)c2[C@H]2C[C@@H]1c1nc3ccc(C#CC(C)(C)CO)cc3n12 [Example 191]" reported_endpoint=pIC50 result="4.52 to 5.00"
compound="CCN1C(=O)c2cccc(OC(F)F)c2[C@H]2C[C@@H]1c1nc3ccc(C#Cc4cnn(C)c4)cc3n12 [Example 7]" reported_endpoint=pIC50 result="> 7.00"
compound="[2H]C([2H])([2H])N1C(=O)c2cccc(OC(F)F)c2[C@H]2C[C@@H]1c1nc3ccc(C#CCCO)cc3n12 [Example 111]" reported_endpoint=pIC50 result="> 7.00"
compound="[2H]C([2H])([2H])N1C(=O)c2cccc(OC(F)F)c2[C@H]2C[C@@H]1c1nc3ccc(C#CCOC4CCNCC4)cc3n12 [Example 117]" reported_endpoint=pIC50 result="6.00 to 7.00"
compound="[2H]C([2H])([2H])N1C(=O)c2cccc(OC(F)F)c2[C@H]2C[C@@H]1c1nc3ccc(C#Cc4cnc(P(C)(C)=O)nc4)cc3n12 [Example 100]" reported_endpoint=pIC50 result="> 7.00"
compound="[2H]C([2H])([2H])N1C(=O)c2cccc(OC(F)F)c2[C@H]2C[C@@H]1c1nc3ccc(C#CC4(F)CNC4)cc3n12 [Example 253]" reported_endpoint=pIC50 result="> 7.00"
compound="[2H]C([2H])([2H])N1C(=O)c2cccc(OC(F)F)c2[C@H]2C[C@@H]1c1nc3ccc(C#C[C@H](C)COC)cc3n12 [Example 142]" reported_endpoint=pIC50 result="> 7.00"
compound="[2H]C([2H])([2H])N1C(=O)c2cccc(OC(F)F)c2[C@H]2C[C@@H]1c1nc3ccc(C#CC4CN(C(C)C(F)F)C4)cc3n12 (stereo partly shown) [Example 238]" reported_endpoint=pIC50 result="> 7.00"
compound="[2H]C([2H])([2H])N1C(=O)c2cccc(OC(F)F)c2[C@H]2C[C@@H]1c1nc3ccc(C#Cc4nncs4)cc3n12 [Example 30]" reported_endpoint=pIC50 result="> 7.00"
compound="[2H]C([2H])([2H])N1C(=O)c2cccc(OC(F)F)c2[C@H]2C[C@@H]1c1nc3ccc(C#Cc4cnc(N)nc4)cc3n12 [Example 249]" reported_endpoint=pIC50 result="> 7.00"
compound="CN1C(=O)c2cccc(OC(F)F)c2[C@H]2C[C@@H]1c1nc3ccc(C#Cc4cncnc4)cc3n12 [Example 4]" reported_endpoint=pIC50 result="> 7.00"
compound="[2H]C([2H])([2H])N1C(=O)c2cccc(OC(F)F)c2[C@H]2C[C@@H]1c1nc3ccc(C#CC4CCN(C(=O)C5CC5)CC4)cc3n12 [Example 174]" reported_endpoint=pIC50 result="> 7.00"
